I'd be grateful if you could share measured pKd for these entries.
# system: T1, recombinant human TIGIT (human, UniProt Q495A1 22-141, limits assumed)
# T1 construct: recombinant human TIGIT used in Carterra SPR; also called hTIGIT
# T1 sequence (looked up): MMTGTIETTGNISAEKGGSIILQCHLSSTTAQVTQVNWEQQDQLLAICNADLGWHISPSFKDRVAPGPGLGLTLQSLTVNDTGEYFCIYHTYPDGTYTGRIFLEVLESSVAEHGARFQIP
# protocol-text: SPR Carterra, average
Hey, just a heads up that pKd is the negative log base 10 of the concentration in molar.

### Prompt May I ask what pKd has been recorded for TIGIT-SC130 (Fc fusion, VHH-Fc fusion in assay) VHH: EVQLVESGGGLVQPGGSLRLSCAASGPTLGSYVTGWFRQAPGKEREFVAAISGSSDDTYYADSVKGRFTISADNSKNTAYLQMNSLKPEDTAVYYCARWREFPGYYFAIDVWGQGTLVTVSS ?
### Response 7.14

### Prompt pKd for TIGIT-SC49 (Fc fusion, VHH-Fc fusion in assay) VHH: EVQLVESGGGLVQPGGSLRLSCAASGRTFIGYHMGWFRQAPGKEREFVAAISWTGESTLYADSVKGRFTISADNSKNTAYLQMNSLKPEDTAVYYCARDDYGDYRRYFQHWGQGTLVTVSS ?
### Response 7.84

### Prompt For TIGIT-SC22 (Fc fusion, VHH-Fc fusion in assay) VHH: EVQLVESGGGLVQPGGSLRLSCAASGFTLENNMMGWFRQAPGKEREMVAAISWSGGSALYADSVKGRFTISADNSKNTAYLQMNSLKPEDTAVYYCARGDGYSYGNFDYWGQGTLVTVSS , what is its reported pKd?
### Response 7.75

### Prompt Requested field: pKd. Item: TIGIT-SC184 (Fc fusion, VHH-Fc fusion in assay) VHH: EVQLVESGGGLVQPGGSLRLSCAASGFTFSPSWMGWFRQAPGKEREWVASVLRGGYTWYADSVKGRFTISADNSKNTAYLQMNSLKPEDTAVYYCTTDRGYNWNYDWGQGTLVTVSS
### Response 7.90
